System: Pseudomonas aeruginosa
test-protocol: Antibacterial activity against Pseudomonas aeruginosa assessed as growth inhibition at 50 ug/well after 24 hrs by agar well diffusion method
Assay type: functional
condition-summary: read-out: DIZ

# compound, assayed-system, zone of inhibition at 50 µg/disc
records = [
    ("c1ccc(-c2csc(Nc3cc(-c4ccccc4)n(-c4nc(-c5ccccc5)cs4)n3)n2)cc1", "Pseudomonas aeruginosa", "18 mm"),
    ("NC(=S)n1nc(Nc2nc(-c3ccccc3)c[nH]2)cc1-c1ccccc1", "Pseudomonas aeruginosa", "12 mm"),
    ("Clc1ccc(-c2coc(Nc3cc(-c4ccc(Cl)cc4)n(-c4nc(-c5ccc(Cl)cc5)cs4)n3)n2)cc1", "Pseudomonas aeruginosa", "10 mm"),
    ("NC(=S)n1nc(Nc2nc(-c3ccc(Cl)cc3)c[nH]2)cc1-c1ccc(Cl)cc1", "Pseudomonas aeruginosa", "13 mm"),
    ("O=C(N[C@H](CO)[C@H](O)c1ccc([N+](=O)[O-])cc1)C(Cl)Cl [CHLORAMPHENICOL]", "Pseudomonas aeruginosa", "27 mm"),
]

----------
This listing pairs molecules with measured zone of inhibition at 25 µg/disc.
System: Bacillus subtilis
test-protocol: Antibacterial activity against Bacillus subtilis assessed as growth inhibition at 25 ug/well after 24 hrs by agar well diffusion method
Type: functional
condition-summary: read-out: DIZ
metric: zone of inhibition at 25 µg/disc

# chemical-string, measured
records = [
    ("Clc1ccc(-c2c[nH]c(Nc3cc(-c4ccc(Cl)cc4)n(-c4nc(-c5ccc(Cl)cc5)cs4)n3)n2)cc1", "27 mm"),
    ("Cc1ccc(-c2coc(Nc3cc(-c4ccc(C)cc4)n(-c4nc(-c5ccc(C)cc5)cs4)n3)n2)cc1", "6 mm"),
    ("NC(=S)n1nc(Nc2nc(-c3ccccc3)c[nH]2)cc1-c1ccccc1", "18 mm"),
    ("Cc1ccc(-c2csc(Nc3cc(-c4ccc(C)cc4)n(C(N)=S)n3)n2)cc1", "10 mm"),
]

----------
Tested on: Bacillus subtilis
test-protocol: Antibacterial activity against Bacillus subtilis assessed as growth inhibition at 25 ug/well after 24 hrs by agar well diffusion method
Type: functional
condition-summary: read-out: DIZ
metric: zone of inhibition at 25 µg/disc (mm)

# compound, assayed-system, metric, measured
data = [
    ("NC(=S)n1nc(Nc2nc(-c3ccc(Cl)cc3)co2)cc1-c1ccc(Cl)cc1", "Bacillus subtilis", "zone of inhibition at 25 µg/disc", 15),
    ("Clc1ccc(-c2coc(Nc3cc(-c4ccc(Cl)cc4)n(-c4nc(-c5ccc(Cl)cc5)cs4)n3)n2)cc1", "Bacillus subtilis", "zone of inhibition at 25 µg/disc", 16),
    ("NC(=S)n1nc(Nc2nc(-c3ccc(Cl)cc3)cs2)cc1-c1ccc(Cl)cc1", "Bacillus subtilis", "zone of inhibition at 25 µg/disc", 22),
    ("c1ccc(-c2c[nH]c(Nc3cc(-c4ccccc4)n(-c4nc(-c5ccccc5)cs4)n3)n2)cc1", "Bacillus subtilis", "zone of inhibition at 25 µg/disc", 24),
    ("c1ccc(-c2csc(Nc3cc(-c4ccccc4)n(-c4nc(-c5ccccc5)cs4)n3)n2)cc1", "Bacillus subtilis", "zone of inhibition at 25 µg/disc", 25),
    ("O=C(N[C@H](CO)[C@H](O)c1ccc([N+](=O)[O-])cc1)C(Cl)Cl [CHLORAMPHENICOL]", "Bacillus subtilis", "zone of inhibition at 25 µg/disc", 32),
    ("Cc1ccc(-c2c[nH]c(Nc3cc(-c4ccc(C)cc4)n(C(N)=S)n3)n2)cc1", "Bacillus subtilis", "zone of inhibition at 25 µg/disc", 9),
    ("Clc1ccc(-c2csc(Nc3cc(-c4ccc(Cl)cc4)n(-c4nc(-c5ccc(Cl)cc5)cs4)n3)n2)cc1", "Bacillus subtilis", "zone of inhibition at 25 µg/disc", 29),
    ("c1ccc(-c2coc(Nc3cc(-c4ccccc4)n(-c4nc(-c5ccccc5)cs4)n3)n2)cc1", "Bacillus subtilis", "zone of inhibition at 25 µg/disc", 8),
]
